# Measured on: Rat α3β2 nAChR (Rattus norvegicus, UniProt P04757+P12390)
# Construct: expressed in transfected cells; host or cells: Xenopus laevis oocytes, cRNA injected
# Sequence (P04757 26-499 limits assumed): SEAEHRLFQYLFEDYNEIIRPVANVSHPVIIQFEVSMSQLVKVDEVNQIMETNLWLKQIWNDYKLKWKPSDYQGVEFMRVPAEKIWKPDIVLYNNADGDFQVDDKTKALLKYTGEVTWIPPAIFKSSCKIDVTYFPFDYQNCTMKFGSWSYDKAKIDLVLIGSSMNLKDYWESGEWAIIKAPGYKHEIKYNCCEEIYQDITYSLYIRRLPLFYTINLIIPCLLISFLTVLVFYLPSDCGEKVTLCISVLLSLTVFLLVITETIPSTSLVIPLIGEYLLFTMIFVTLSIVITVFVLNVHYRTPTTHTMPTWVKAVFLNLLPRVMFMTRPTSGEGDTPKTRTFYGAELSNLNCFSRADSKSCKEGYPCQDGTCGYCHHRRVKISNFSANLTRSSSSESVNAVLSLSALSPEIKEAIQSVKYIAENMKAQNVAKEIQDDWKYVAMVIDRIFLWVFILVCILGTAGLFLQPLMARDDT
# Sequence (P12390 25-500 limits assumed): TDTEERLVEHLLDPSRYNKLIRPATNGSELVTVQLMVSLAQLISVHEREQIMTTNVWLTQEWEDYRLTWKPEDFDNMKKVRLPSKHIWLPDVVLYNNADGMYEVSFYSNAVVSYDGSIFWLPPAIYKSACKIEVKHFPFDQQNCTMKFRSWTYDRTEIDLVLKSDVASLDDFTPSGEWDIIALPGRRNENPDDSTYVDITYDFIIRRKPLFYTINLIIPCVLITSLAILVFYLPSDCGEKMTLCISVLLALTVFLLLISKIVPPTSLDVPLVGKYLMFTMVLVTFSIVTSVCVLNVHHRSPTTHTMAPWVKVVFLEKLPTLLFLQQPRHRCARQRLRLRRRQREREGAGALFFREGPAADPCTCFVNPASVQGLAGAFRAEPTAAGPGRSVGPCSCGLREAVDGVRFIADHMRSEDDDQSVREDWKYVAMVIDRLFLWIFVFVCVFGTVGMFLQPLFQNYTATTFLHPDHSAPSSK
# Run description: cell-based
# Type: cell-based
Where a SMILES comes first, the peptide text is derived from it. Bridges are numbered along the chain shown (N, C = ends).
Measurement label: Ratio IC50 α3β2/IC50 α6/α3β2β3
Just the number, please.

Briefly, Ratio IC50 α3β2/IC50 α6/α3β2β3 measured for CC(C)C[C@@H]1NC(=O)[C@H](Cc2c[nH]cn2)NC(=O)[C@@H]2CSSC[C@H](NC(=O)CN)C(=O)N[C@@H](CSSC[C@@H](C(N)=O)NC(=O)[C@H](C)NC(=O)[C@H](CC(N)=O)NC(=O)[C@H](CO)NC(=O)[C@H](Cc3c[nH]cn3)NC(=O)[C@H](CCC(=O)O)NC1=O)C(=O)N[C@@H](CO)C(=O)N[C@@H](CC(N)=O)C(=O)N1CCC[C@H]1C(=O)N[C@@H](C(C)C)C(=O)N2 [MII[L15A]] (H-GCCSNPVCHLEHSNAC-NH2; disulfide 2-8, 3-16) : 37.2

* * *

# Measured on: Rat α6/α3β2β3 nAChR (Rattus norvegicus, UniProt P04757+P12390+P43143)
# Construct: amino acids 1 to 237 of the rat α6 subunit protein; amino acids 233 to 499 of the rat α3 subunit protein
# Sequence (P43143 31-237 limits assumed): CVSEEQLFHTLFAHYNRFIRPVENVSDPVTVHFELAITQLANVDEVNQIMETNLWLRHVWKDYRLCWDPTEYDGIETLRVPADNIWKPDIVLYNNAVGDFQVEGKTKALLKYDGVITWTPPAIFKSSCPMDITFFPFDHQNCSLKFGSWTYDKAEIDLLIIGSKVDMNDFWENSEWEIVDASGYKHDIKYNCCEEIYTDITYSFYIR
# Sequence (P04757 233-499 limits assumed): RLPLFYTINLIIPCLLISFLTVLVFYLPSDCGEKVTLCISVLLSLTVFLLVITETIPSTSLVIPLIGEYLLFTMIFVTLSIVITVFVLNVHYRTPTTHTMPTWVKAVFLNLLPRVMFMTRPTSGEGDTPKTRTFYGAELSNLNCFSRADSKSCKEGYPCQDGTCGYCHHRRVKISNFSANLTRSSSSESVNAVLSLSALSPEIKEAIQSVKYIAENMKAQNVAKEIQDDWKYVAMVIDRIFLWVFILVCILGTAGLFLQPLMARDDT
# Sequence (P12390 25-500 limits assumed): as the sequence (P12390 25-500 limits assumed) above
# Run description: cell-based
Where a SMILES comes first, the peptide text is derived from it. Bridges are numbered along the chain shown (N, C = ends).
Measurement label: IC50

Measured IC50, CC(C)C[C@@H]1NC(=O)[C@H](C)NC(=O)[C@@H]2CSSC[C@H](NC(=O)CN)C(=O)N[C@@H](CSSC[C@@H](C(N)=O)NC(=O)[C@H](CC(C)C)NC(=O)[C@H](CC(N)=O)NC(=O)[C@H](CO)NC(=O)[C@H](Cc3c[nH]cn3)NC(=O)[C@H](CCC(=O)O)NC1=O)C(=O)N[C@@H](CO)C(=O)N[C@@H](CC(N)=O)C(=O)N1CCC[C@H]1C(=O)N[C@@H](C(C)C)C(=O)N2 [MII[H9A]] (H-GCCSNPVCALEHSNLC-NH2; disulfide 2-8, 3-16) : 0.79 nM

get_value(item= CC(C)[C@@H]1NC(=O)[C@@H]2CCCN2C(=O)[C@H](CC(N)=O)NC(=O)[C@H](CO)NC(=O)[C@@H]2CSSC[C@@H](C(N)=O)NC(=O)[C@H](C)NC(=O)[C@H](CC(N)=O)NC(=O)[C@H](CO)NC(=O)[C@H](Cc3c[nH]cn3)NC(=O)[C@H](CCC(=O)O)NC(=O)[C@H](C)NC(=O)[C@H](Cc3c[nH]cn3)NC(=O)[C@H](CSSC[C@H](NC(=O)CN)C(=O)N2)NC1=O [MII[L10A; L15A]] (H-GCCSNPVCHAEHSNAC-NH2; disulfide 2-8, 3-16) , readout=IC50) returns 1.8 nM

Per the record, CC(C)C[C@@H]1NC(=O)[C@H](Cc2c[nH]cn2)NC(=O)[C@@H]2CSSC[C@H](NC(=O)CN)C(=O)N[C@@H](CSSC[C@@H](C(N)=O)NC(=O)[C@H](C)NC(=O)[C@H](CC(N)=O)NC(=O)[C@H](CO)NC(=O)[C@H](Cc3c[nH]cn3)NC(=O)[C@H](C)NC1=O)C(=O)N[C@@H](CO)C(=O)N[C@@H](CC(N)=O)C(=O)N1CCC[C@H]1C(=O)N[C@@H](C(C)C)C(=O)N2 [MII[E11A; L15A]] (H-GCCSNPVCHLAHSNAC-NH2; disulfide 2-8, 3-16) has IC50 of 0.415 nM

Per the records, this molecule ( CC(C)C[C@@H]1NC(=O)[C@H](C)NC(=O)[C@@H]2CSSC[C@H](NC(=O)CN)C(=O)N[C@@H](CSSC[C@@H](C(N)=O)NC(=O)[C@H](CC(C)C)NC(=O)[C@H](CC(N)=O)NC(=O)[C@H](CO)NC(=O)[C@H](Cc3c[nH]cn3)NC(=O)[C@H](CCC(=O)O)NC1=O)C(=O)N[C@@H](C)C(=O)N[C@@H](CC(N)=O)C(=O)N1CCC[C@H]1C(=O)N[C@@H](C(C)C)C(=O)N2 [MII[S4A; H9A]] (H-GCCANPVCALEHSNLC-NH2; disulfide 2-8, 3-16) ) has IC50 equal to 1.97 nM

* * *

# Measured on: Rat α6/α3β2β3 nAChR (Rattus norvegicus, UniProt P04757+P12390+P43143)
# Construct: amino acids 1 to 237 of the rat α6 subunit protein; amino acids 233 to 499 of the rat α3 subunit protein
# Run description: cell-based
Where a SMILES comes first, the peptide text is derived from it. Bridges are numbered along the chain shown (N, C = ends).
Measurement label: IC50
A complete answer gives the number followed by the unit.

IC50 recorded for this compound, CC(C)C[C@@H]1NC(=O)[C@H](CC(N)=O)NC(=O)[C@H](CO)NC(=O)[C@H](Cc2c[nH]cn2)NC(=O)[C@H](CCC(=O)O)NC(=O)[C@H](C)NC(=O)[C@H](Cc2c[nH]cn2)NC(=O)[C@@H]2CSSC[C@H](NC(=O)CN)C(=O)N[C@@H](CSSC[C@@H](C(N)=O)NC1=O)C(=O)N[C@@H](CO)C(=O)N[C@@H](CC(N)=O)C(=O)N1CCC[C@H]1C(=O)N[C@@H](C(C)C)C(=O)N2 [MII[L10A]] (H-GCCSNPVCHAEHSNLC-NH2; disulfide 2-8, 3-16) , is 0.482 nM

GET /value?item= CC(C)C[C@@H]1NC(=O)[C@H](CC(N)=O)NC(=O)[C@H](CO)NC(=O)[C@H](C)NC(=O)[C@H](CCC(=O)O)NC(=O)[C@H](CC(C)C)NC(=O)[C@H](Cc2c[nH]cn2)NC(=O)[C@@H]2CSSC[C@H](NC(=O)CN)C(=O)N[C@@H](CSSC[C@@H](C(N)=O)NC1=O)C(=O)N[C@@H](CO)C(=O)N[C@@H](CC(N)=O)C(=O)N1CCC[C@H]1C(=O)N[C@@H](C(C)C)C(=O)N2 [MII[H12A]] (H-GCCSNPVCHLEASNLC-NH2; disulfide 2-8, 3-16) &field=IC50 returns 604 nM

* * *

# Measured on: Rat α6/α3β2β3 nAChR (Rattus norvegicus, UniProt P04757+P12390+P43143)
# Construct: amino acids 1 to 237 of the rat α6 subunit protein; amino acids 233 to 499 of the rat α3 subunit protein
# Run description: cell-based
Where a SMILES comes first, the peptide text is derived from it. Bridges are numbered along the chain shown (N, C = ends).
Measurement label: pIC50
Value format note: pIC50 is -log10 of concentration (mol/L); just state the number.

Form: molecule = CC(C)C[C@@H]1NC(=O)[C@H](CC(N)=O)NC(=O)[C@H](CO)NC(=O)[C@H](Cc2c[nH]cn2)NC(=O)[C@H](CCC(=O)O)NC(=O)[C@H](CC(C)C)NC(=O)[C@H](Cc2c[nH]cn2)NC(=O)[C@@H]2CSSC[C@H](NC(=O)CN)C(=O)N[C@@H](CSSC[C@@H](C(N)=O)NC1=O)C(=O)N[C@@H](CO)C(=O)N[C@@H](C)C(=O)N1CCC[C@H]1C(=O)N[C@@H](C(C)C)C(=O)N2 [MII[N5A]] (H-GCCSAPVCHLEHSNLC-NH2; disulfide 2-8, 3-16) ; pIC50 = 6.10

* * *

Would you kindly list Ratio IC50 α3β2/IC50 α6/α3β2β3 for each of these compounds?
# Measured on: Rat α3β2 nAChR (Rattus norvegicus, UniProt P04757+P12390)
# Construct: expressed in transfected cells; host or cells: Xenopus laevis oocytes, cRNA injected
# Run description: cell-based
# Format: cell-based
Where a SMILES comes first, the peptide text is derived from it. Bridges are numbered along the chain shown (N, C = ends).
Field format: numeric only.

Reported Ratio IC50 α3β2/IC50 α6/α3β2β3 for CC(C)C[C@@H]1NC(=O)[C@H](C)NC(=O)[C@H](CO)NC(=O)[C@H](Cc2c[nH]cn2)NC(=O)[C@H](CCC(=O)O)NC(=O)[C@H](CC(C)C)NC(=O)[C@H](Cc2c[nH]cn2)NC(=O)[C@@H]2CSSC[C@H](NC(=O)CN)C(=O)N[C@@H](CSSC[C@@H](C(N)=O)NC1=O)C(=O)N[C@@H](CO)C(=O)N[C@@H](CC(N)=O)C(=O)N1CCC[C@H]1C(=O)N[C@@H](C(C)C)C(=O)N2 [MII[N14A]] (H-GCCSNPVCHLEHSALC-NH2; disulfide 2-8, 3-16) was 24.2

The compound CC(C)C[C@@H]1NC(=O)[C@H](CC(N)=O)NC(=O)[C@H](CO)NC(=O)[C@H](Cc2c[nH]cn2)NC(=O)[C@H](CCC(=O)O)NC(=O)[C@H](C)NC(=O)[C@H](Cc2c[nH]cn2)NC(=O)[C@@H]2CSSC[C@H](NC(=O)CN)C(=O)N[C@@H](CSSC[C@@H](C(N)=O)NC1=O)C(=O)N[C@@H](CO)C(=O)N[C@@H](CC(N)=O)C(=O)N1CCC[C@H]1C(=O)N[C@@H](C(C)C)C(=O)N2 [MII[L10A]] (H-GCCSNPVCHAEHSNLC-NH2; disulfide 2-8, 3-16) showed Ratio IC50 α3β2/IC50 α6/α3β2β3 equal to 3.05

So for CC(C)C[C@@H]1NC(=O)[C@H](CC(N)=O)NC(=O)[C@H](CO)NC(=O)[C@H](Cc2c[nH]cn2)NC(=O)[C@H](CCC(=O)O)NC(=O)[C@H](CC(C)C)NC(=O)[C@H](Cc2c[nH]cn2)NC(=O)[C@@H]2CSSC[C@H](NC(=O)CN)C(=O)N[C@@H](CSSC[C@@H](C(N)=O)NC1=O)C(=O)N[C@@H](C)C(=O)N[C@@H](CC(N)=O)C(=O)N1CCC[C@H]1C(=O)N[C@@H](C(C)C)C(=O)N2 [MII[S4A]] (H-GCCANPVCHLEHSNLC-NH2; disulfide 2-8, 3-16) , the logged Ratio IC50 α3β2/IC50 α6/α3β2β3 turned out to be 21.56

Kindly note the recorded Ratio IC50 α3β2/IC50 α6/α3β2β3 for CC(C)C[C@@H]1NC(=O)[C@H](CC(N)=O)NC(=O)[C@H](C)NC(=O)[C@H](Cc2c[nH]cn2)NC(=O)[C@H](CCC(=O)O)NC(=O)[C@H](CC(C)C)NC(=O)[C@H](Cc2c[nH]cn2)NC(=O)[C@@H]2CSSC[C@H](NC(=O)CN)C(=O)N[C@@H](CSSC[C@@H](C(N)=O)NC1=O)C(=O)N[C@@H](CO)C(=O)N[C@@H](CC(N)=O)C(=O)N1CCC[C@H]1C(=O)N[C@@H](C(C)C)C(=O)N2 [MII[S13A]] (H-GCCSNPVCHLEHANLC-NH2; disulfide 2-8, 3-16) , which is 3.85

Quick note, Ratio IC50 α3β2/IC50 α6/α3β2β3 for CC(C)C[C@@H]1NC(=O)[C@H](CC(N)=O)NC(=O)[C@H](CO)NC(=O)[C@H](Cc2c[nH]cn2)NC(=O)[C@H](CCC(=O)O)NC(=O)[C@H](CC(C)C)NC(=O)[C@H](Cc2c[nH]cn2)NC(=O)[C@@H]2CSSC[C@H](NC(=O)CN)C(=O)N[C@@H](CSSC[C@@H](C(N)=O)NC1=O)C(=O)N[C@@H](CO)C(=O)N[C@@H](CC(N)=O)C(=O)N1CCC[C@H]1C(=O)N[C@@H](C)C(=O)N2 [MII[V7A]] (H-GCCSNPACHLEHSNLC-NH2; disulfide 2-8, 3-16) landed at 0.421
